System: L1210
Measurement protocol: Antiproliferative activity against mouse L1210 cells after 48 hrs relative control
Format: functional, cell-based
Particulars: L1210, 48 h
Property: pIC50
// scale note: pIC50 = -log10(conc_M); give the bare number

Query block: What does the record list as pIC50 for COc1ccc(CCN2C=CC=C3C2=Nc2ccc(Cl)cc2N(C)S3(=O)=O)cc1 ?
Result block: 6.64

Query block: Dear colleague, I am looking for the recorded pIC50 of the following molecule: COc1ccc(CCN2C=CC=C3C2=Nc2ccc(Cl)cc2S(=O)(=O)N3C)cc1
Result block: 5.89

Query block: Entry COc1ccc(CN2C=CC=C3C2=Nc2cc(C)ccc2S(=O)(=O)N3C)cc1 : reported pIC50 = ?
Result block: 5.05

Query block: Return reported pIC50; argument: COc1ccc(CN2c3ccccc3N(C)S(=O)(=O)c3cccnc32)cc1
Result block: 5.02

Query block: Which pIC50 value is on record for COc1ccc(CN2C=CC=C3C2=Nc2cc(Cl)ccc2S(=O)(=O)N3C)cc1 ?
Result block: 5.82

Query block: Which value of pIC50 has been reported for COc1ccc(CN2C=CC=C3C2=Nc2ccc(Cl)cc2N(C)S3(=O)=O)cc1 in the records?
Result block: 5.39

Query block: // query pIC50 value for entry COc1ccc(CCN2C=CC=C3C2=Nc2ccccc2N(C)S3(=O)=O)cc1
Result block: 6.96

Query block: Value lookup for pIC50; key = COc1ccc(CCN2C=CC=C3C2=Nc2cc(Cl)ccc2N(C)S3(=O)=O)cc1
Result block: 6.72

###

Field: pIC50. Provide a value for each of the compounds that follow.
Test system: L1210
Measurement protocol: Antiproliferative activity against mouse L1210 cells after 48 hrs relative control
Format: functional, cell-based
Particulars: L1210, 48 h
pIC50: −log10 of the molar value.

Query block: State the recorded pIC50 for this entry: COc1ccc(CCN2c3cc(C)ccc3N(C)S(=O)(=O)c3cccnc32)cc1
Result block: < 5.00

Query block: Entry COc1ccc(CCCN2C=CC=C3C2=Nc2ccccc2N(C)S3(=O)=O)cc1 : reported pIC50 = ?
Result block: 5.08

Query block: Give its pIC50 value. Item: CN1C2=CC=CN(CCc3ccc(O)cc3)C2=Nc2ccccc2S1(=O)=O
Result block: < 5.00

Query block: Data request, read-out pIC50, for COc1ccc(CCN2c3ccccc3N(C)S(=O)(=O)c3cccnc32)cc1
Result block: < 5.00

Query block: Give its pIC50 value. Item: COc1ccc(CCCN2C=CC=C3C2=Nc2cc(Cl)ccc2S(=O)(=O)N3C)cc1
Result block: < 5.00

Query block: For the compound COc1ccc(CN2c3cc(Cl)ccc3S(=O)(=O)N(C)c3cccnc32)cc1 , what pIC50 is on record?
Result block: < 5.00

Query block: # pIC50 lookup, item COc1ccc(CCN2C=CC=C3C2=Nc2cc(OC)ccc2N(C)S3(=O)=O)cc1
Result block: 5.82

Query block: May I ask what pIC50 has been recorded for COc1ccc(CN2c3cc(OC)ccc3N(C)S(=O)(=O)c3cccnc32)cc1 ?
Result block: 5.08

Query block: Form field: reported pIC50 of COc1ccc(CN2C=CC=C3C2=Nc2cc(Cl)ccc2N(C)S3(=O)=O)cc1
Result block: 5.27

Query block: # get_value(readout='pIC50', item= COc1ccc(CCN2C=CC=C3C2=Nc2cc(Cl)ccc2S(=O)(=O)N3C)cc1 )
Result block: 5.89

Query block: Endpoint output: pIC50 of COc1ccc(CN2C=CC=C3C2=Nc2ccccc2N(C)S3(=O)=O)cc1 . Value?
Result block: < 5.00

Query block: Reported pIC50, compound CCN(CC)CCN1c2ccccc2N(CCc2ccc(OC)cc2)c2ncccc2S1(=O)=O : ____
Result block: < 5.00

Query block: Please report the recorded pIC50 for COc1ccc(CCN2C=CC=C3C2=Nc2ccccc2N(Cc2ccc(OC)cc2)S3(=O)=O)cc1 .
Result block: < 4.00

Query block: Looking for the measured pIC50 of COc1ccc(CCN2c3cc(OC)ccc3N(C)S(=O)(=O)c3cccnc32)cc1 , can you help?
Result block: < 5.00

Query block: If you can, please state the reported pIC50 value of COc1ccc(CCCN2C=CC=C3C2=Nc2cc(C(F)(F)F)ccc2S(=O)(=O)N3C)cc1 .
Result block: < 5.00

Query block: Please give the measured pIC50 for this compound: COc1ccc(CCN2C=CC=C3C2=Nc2cc(OC)ccc2S(=O)(=O)N3C)cc1
Result block: < 5.00

Query block: Request the reported pIC50 associated with COc1ccc(CN2c3cc(Cl)ccc3N(C)S(=O)(=O)c3cccnc32)cc1
Result block: 5.06

Query block: Need pIC50, item COc1ccc(CCN2C=CC=C3C2=Nc2cc(C)ccc2N(C)S3(=O)=O)cc1
Result block: 6.39

Query block: Give the measured pIC50 of COc1ccc(CN2C=CC=C3C2=Nc2ccccc2S(=O)(=O)N3C)cc1 .
Result block: < 5.00

Query block: For COc1ccc(CCN2c3ccccc3S(=O)(=O)N(C)c3cccnc32)cc1 , what is its reported pIC50?
Result block: < 5.00

Query block: Recorded pIC50 of COc1ccc(CCCN2C=CC=C3C2=Nc2cc(C)ccc2S(=O)(=O)N3C)cc1 , please.
Result block: < 5.00
